Test system: Staph aureus 1146
assay procedure: MIC, microtiter broth dilution (CLSI M7-A7), Assay 1, Table 12 column B, no serum
Format: cell-based, Staphylococcus aureus
assay conditions: Staphylococcus aureus, 1146, Staph aureus 1146, Assay 1, no serum
reported property: MIC

So the reported MIC for COc1ccc2nccc(C(O)CC[C@@H]3CCN(C4CC(c5ccc(O)c(OC)c5)C4)C[C@@H]3C(=O)O)c2c1 (stereo partly shown) , on Staph aureus 1146, turned out to be > 64 µg/mL

Staph aureus 1146 MIC of COc1ccc2nc(C)cc(C(O)CC[C@@H]3CCN(C4CC(c5c(F)cccc5F)C4)C[C@@H]3C(=O)O)c2c1 (stereo partly shown) is 1 µg/mL

// assay Staph aureus 1146, entry COc1ccc2ncc(Cl)c(CCNC3(C(=O)O)CCCN(C4CC(c5c(F)cccc5F)C4)CC3)c2c1 (stereo not shown) , MIC value = 0.0625 µg/mL

Note to self: MIC of COc1ccc2ncc(Cl)c(CCCC3(C(=O)O)CCN(C4CC(c5ccccc5)C4)CC3)c2c1 (stereo not shown) with Staph aureus 1146 was ≤ 0.0625 µg/mL

MIC value, target or system Staph aureus 1146, for COC(=O)[C@H]1CN(C[C@@H]2C[C@H]2c2ccccc2)CC[C@H]1CCC(O)c1ccnc2ccc(OC)cc12 (mixture of isomers) : 4 µg/mL

Form field, MIC with Staph aureus 1146, item O=C(O)[C@H]1CN(C2CC(c3ccccc3)C2)CC[C@H]1CCC(O)c1ccnc2ccc(O)cc12 (stereo partly shown) : 16 µg/mL

Record for COc1ccc2ncc(Cl)c(C(O)CCC3(C(=O)O)CCN(C4CC(c5cc(F)ccc5F)C4)C3)c2c1 (stereo not shown) under target or system Staph aureus 1146: MIC reported as < 0.0625 µg/mL

* * *

System: Staph aureus 2811
assay procedure: MIC, microtiter broth dilution (CLSI M7-A7), Assay 1, Table 12 column D, no serum
Type: cell-based, Staphylococcus aureus
assay conditions: Staph aureus 2811, Assay 1, no serum
reported property: MIC, column D (µg/mL)
Field: numeric (µg/mL). Do not append units.

Form field MIC, column D, entry COc1ccc2nccc(C(O)CC[C@@H]3CCN(C4CC(c5ccccc5)C4)CC3(C)C(=O)O)c2c1 (stereo partly shown) : 2

# MIC, column D (compound: COc1ccc2nccc(C(CC[C@@H]3CCN(C4CC(c5ccccc5)C4)C[C@@H]3C(=O)O)OC)c2c1 (stereo partly shown) [Example 10] ) is 0.5

Note to self: MIC, column D recorded for COc1ccc2nccc(C(O)CC[C@@H]3CCN(C[C@@H]4C[C@H]4c4ccccc4)C[C@@H]3C(=O)O)c2c1 (stereo partly shown) was 1.4142

Value of measured MIC, column D for the entry COc1ccc2nccc(C(O)CC[C@@H]3CCN(CC4CC(c5ccccc5)C4)C[C@@H]3C(=O)O)c2c1 (stereo partly shown) : 2.00

* * *

For each record, write down the corresponding MIC.
Tested on: Staph aureus 1146
assay procedure: MIC, microtiter broth dilution (CLSI M7-A7), Assay 1, Table 12 column B, no serum
Assay type: cell-based, Staphylococcus aureus
assay conditions: Staphylococcus aureus, 1146, Staph aureus 1146, Assay 1, no serum
Numeric only. Scale: µg/mL

MIC measured on O=C(O)[C@H]1CN(C2CC(c3c(F)cccc3F)C2)CC[C@H]1CCC(O)c1c(F)cnc2ccc(O)nc12 (stereo partly shown) [Example 201] = 2

Memo: COc1ccc2ncc(F)c(CCCC3(C(=O)O)CCN(C4CC(c5nc(C)no5)C4)CC3)c2c1 (stereo not shown) [Example 98] , reported MIC: 2
